# TEST_TARGET: Glucocorticoid receptor (Homo sapiens)
# EXPERIMENT_NOTES: GR-EFC Redistribution (AID 451); also: potency is read from the fitted curve at half-maximal effect
# APPLIED_CONDITIONS: CHO-K1 GR-EFC translocation, beta-gal luminescence, 2 h
Active and inactive are the calls of the source. Calls follow the shape of the full dose curve.

{"COMPOUND": "C=C1c2cccc(O)c2C(O)=C2C(=O)[C@@]3(O)C(O)=C(C(N)=O)C(=O)[C@@H](N(C)C)[C@@H]3[C@@H](O)[C@H]12", "Potency": "> 20.6 µM (inactive)"}
{"COMPOUND": "CN(C)c1ccccc1CN1CCCN(Cc2ccccc2N(C)C)C1c1ccncc1", "Potency": "> 9.22 µM (inactive)"}
{"COMPOUND": "Cc1ccc(NC(=O)c2cccc(N(C)C)c2)cc1NC(=O)c1ccc(O)cc1", "Potency": "> 46 µM (inactive)"}
{"COMPOUND": "NC(=O)c1nnn(Cc2cc(Cl)c(C(=O)c3ccc(Cl)cc3)c(Cl)c2)c1N", "Potency": "> 9.22 µM (inactive)"}
{"COMPOUND": "CC1C(=O)OC2C(O)C34C5CC(C(C)(C)C)C36C(OC(=O)C6O)OC4(C(=O)O5)C12O (stereo not given)", "Potency": "> 46 µM (inactive)"}
{"COMPOUND": "COc1nccc(-c2c(-c3ccc(F)cc3)ncn2C2CCC(O)CC2)n1 (stereo not given)", "Potency": "> 46 µM (inactive)"}
{"COMPOUND": "CCCCC[C@H](O)C=C[C@H]1[C@H](O)CC(=O)[C@H]1CCCCCCC(=O)O", "Potency": "> 46 µM (inactive)"}
{"COMPOUND": "COc1ccc(CCN(C)CCCOc2ccc(S(=O)(=O)c3[nH]c4ccccc4c3C(C)C)cc2)cc1OC", "Potency": "> 46 µM (inactive)"}
{"COMPOUND": "CCC(=C(CC)c1ccc(O)cc1)c1ccc(O)cc1", "Potency": "> 20.6 µM (inactive)"}
{"COMPOUND": "O=S(=O)(O)c1ccc2cc(N=Nc3cc(S(=O)(=O)O)c4cccnc4c3O)ccc2c1", "Potency": "> 9.22 µM (inactive)"}

Where do these numbers come from? They come from PubChem BioAssay (NCATS).
